B1: tRNA (parent)
chain: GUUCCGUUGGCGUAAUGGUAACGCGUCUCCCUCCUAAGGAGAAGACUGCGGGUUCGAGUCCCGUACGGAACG

variants of: B1; experiment: yeast fitness, log relative to wild type (ln ratio); higher = fitter; tRNA-Arg(CCU), competitive growth, 37 C, 1 M NaCl

Mutation Key: U2C G6U C27U C46U
yeast fitness (ln): -0.0552
--
Mutation Key: U2C A43C C46U C66A C71U
yeast fitness (ln): -0.1
--
Mutation Key: U2C G6A C27U A43C C66A C71U
yeast fitness (ln): -0.333
--
Mutation Key: U2C G6A C27U A43C A69G A70G
yeast fitness (ln): -0.211
--
Mutation Key: G1A G6A C27U A43C A70G C71U
yeast fitness (ln): -0.351
--
Mutation Key: G1A U2G G6A A69G C71U
yeast fitness (ln): -0.244
--
Mutation Key: G1A G6U A43C C66A A70U
yeast fitness (ln): -0.411
--
Mutation Key: U2C G6U C27U A43C A69G A70U C71U
yeast fitness (ln): -0.513
--
Mutation Key: G6U C46U A69G A70G C71U
yeast fitness (ln): -0.253
--
Mutation Key: G1A C27U C66U
yeast fitness (ln): -0.206
--
Mutation Key: G6U C27U C46U C66A A69G
yeast fitness (ln): -0.0559
--
Mutation Key: C27U A70U
yeast fitness (ln): -0.042
--
Mutation Key: U2C G6U C27U A43C C46U C66A A70G
yeast fitness (ln): -0.0237
--
Mutation Key: U2G C27U A43C C46U C66U A69G A70U
yeast fitness (ln): -0.221
--
Mutation Key: U2G G6U A43C C46U C66A A70U C71U
yeast fitness (ln): -0.135
--
Mutation Key: G1A U2G G6U A43C C46U A70U
yeast fitness (ln): -0.235
--
Mutation Key: U2C G6U C46U C66U A69G C71U
yeast fitness (ln): -0.221
--
Mutation Key: G1A U2G C27U A43C C66A A70G C71U
yeast fitness (ln): -0.317
--
Mutation Key: U2G G6A A43C C46U C71U
yeast fitness (ln): -0.151
--
Mutation Key: G1A U2C A70G C71U
yeast fitness (ln): -0.0141
--
Mutation Key: C27U A43C A69G C71U
yeast fitness (ln): -0.44
--
Mutation Key: G6U C46U C66U A69G A70U
yeast fitness (ln): -0.235
--
Mutation Key: U2C G6A A43C C66A A70U
yeast fitness (ln): -0.0851
--
Mutation Key: G1A U2C A43C C66U A69G A70G C71U
yeast fitness (ln): -0.287
--
Mutation Key: G1A G6A A43C C46U A69G C71U
yeast fitness (ln): -0.194
--
Mutation Key: G1A U2G G6U C46U A69G A70G C71U
yeast fitness (ln): -0.309
--
Mutation Key: G1A U2G C27U A69G A70G C71U
yeast fitness (ln): -0.241
--
Mutation Key: G1A U2G C46U C66A A69G A70U
yeast fitness (ln): -0.0906
--
Mutation Key: G6A C27U C46U C66U A69G A70G
yeast fitness (ln): -0.213
--
Mutation Key: U2G C27U C66A
yeast fitness (ln): -0.0584
--
Mutation Key: G1A G6U A43C C66U C71U
yeast fitness (ln): -0.333
--
Mutation Key: G1A C46U A70G C71U
yeast fitness (ln): -0.0168
--
Mutation Key: G1A U2G G6A A43C C46U A69G A70G
yeast fitness (ln): -0.292
--
Mutation Key: G1A U2G C66U A69G A70G C71U
yeast fitness (ln): -0.165
--
Mutation Key: C27U A43C C46U C66U A69G A70G C71U
yeast fitness (ln): -0.18
--
Mutation Key: G1A U2C G6A A43C C46U A70U
yeast fitness (ln): -0.034
--
Mutation Key: G1A G6U C46U C66U A70G
yeast fitness (ln): -0.195
--
Mutation Key: U2C G6A C46U C66A A70U
yeast fitness (ln): -0.067
